- target of assay: Somatostatin receptor type 1 (Homo sapiens)
- Sequence (P30872 whole entry): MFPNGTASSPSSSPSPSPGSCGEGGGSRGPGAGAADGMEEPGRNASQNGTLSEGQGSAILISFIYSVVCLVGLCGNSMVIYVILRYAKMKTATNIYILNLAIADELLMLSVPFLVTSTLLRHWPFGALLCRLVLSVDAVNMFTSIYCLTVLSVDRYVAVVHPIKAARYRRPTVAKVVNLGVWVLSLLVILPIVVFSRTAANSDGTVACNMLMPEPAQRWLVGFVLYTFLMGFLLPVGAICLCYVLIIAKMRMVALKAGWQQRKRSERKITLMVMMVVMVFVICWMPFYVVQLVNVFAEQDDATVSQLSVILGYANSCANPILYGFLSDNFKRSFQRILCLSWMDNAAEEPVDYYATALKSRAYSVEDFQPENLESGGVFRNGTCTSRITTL
Where a SMILES comes first, the peptide text is derived from it. [ ]: non-standard residue; d: D form. ξ: configuration not given here. 1Nal = N[C@@H](Cc1cccc2ccccc12)C(=O)O; Thr(3ξ) = CC(O)[C@H](N)C(=O)O
Examples of molecules with documented Ki follow.
measured property: Ki (nM)

molecule="CC(O)[C@H](NC(=O)[C@H](CCCCN)NC(=O)[C@@H](Cc1c[nH]c2ccccc12)NC(=O)[C@H](Cc1ccc(O)cc1)NC(=O)[C@@H](C)NC(=O)[C@@H](N)Cc1ccccc1)C(=O)N[C@@H](C)C(=O)N[C@@H](Cc1cccc2ccccc12)C(N)=O (some centres not stated) [BIM 23070] (H-F[dA]Y[dW]K[Thr(3ξ)]A[1Nal]-NH2)" measured_number=1000
molecule="C[C@@H](O)[C@H](NC(=O)[C@H](Cc1ccccc1)NC(=O)[C@@H](NC(=O)[C@H](CCCCN)NC(=O)[C@@H](Cc1c[nH]c2ccccc12)NC(=O)[C@H](Cc1ccccc1)NC(=O)[C@H](Cc1ccccc1)NC(=O)[C@H](N)Cc1ccccc1)[C@@H](C)O)C(N)=O [CAS_133073-82-2] (H-[dF]FF[dW]KTFT-NH2)" measured_number=23

====

- target of assay: UniProtKB P30875
- Sequence (P30875 whole entry): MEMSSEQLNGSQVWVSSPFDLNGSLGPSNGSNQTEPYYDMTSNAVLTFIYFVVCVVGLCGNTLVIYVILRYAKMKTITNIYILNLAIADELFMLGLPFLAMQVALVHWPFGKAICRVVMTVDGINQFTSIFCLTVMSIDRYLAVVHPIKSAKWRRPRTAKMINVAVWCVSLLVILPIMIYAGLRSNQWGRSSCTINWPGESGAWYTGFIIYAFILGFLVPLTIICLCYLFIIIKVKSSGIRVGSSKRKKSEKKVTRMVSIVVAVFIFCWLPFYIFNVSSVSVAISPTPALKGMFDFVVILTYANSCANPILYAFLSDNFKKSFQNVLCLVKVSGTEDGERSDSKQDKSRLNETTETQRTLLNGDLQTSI
*1 amine or outer side, *2 acyl side, *3 side chain or, on linkers, in order; H or OH if unused. Where a SMILES comes first, the peptide text is derived from it. Bridges are numbered along the chain shown (N, C = ends). [ ]: non-standard residue; d: D form. The star is where a group is joined. ξ: configuration not given here. NH(1-naphthylmethyl) = c1ccc2c(CN*)cccc2c1; Phe(4-Cl) = N[C@@H](Cc1ccc(Cl)cc1)C(=O)O; d2Nal = N[C@H](Cc1ccc2ccccc2c1)C(=O)O; dThr(3ξ) = CC(O)[C@@H](N)C(=O)O; X1 = O=C(C(N[*:1])S[*:3])[*:2]; ξF = NC(Cc1ccccc1)C(=O)O; X2 = CC(O)[C@H](CO)N*; Ahp = NCCCCCCC(=O)O; ξC = NC(CS)C(=O)O; Mpa = O=C(O)CCS
measured property: Ki (nM)

compound="CC(O)C1NC(=O)C(CCCCN)NC(=O)C(Cc2c[nH]c3ccccc23)NC(=O)C(Cc2ccc(O)cc2)NC(=O)C(NC(=O)C(N)Cc2ccccc2)CSSCC(C(=O)NCc2cccc3ccccc23)NC1=O (configuration not stated) [BIM 23060] (H-FCYWKTC-{NH(1-naphthylmethyl)}; disulfide 2-7; configuration not given here)" target_of_assay="UniProtKB P30875" measured_property=Ki measured_number=0.01
compound="CC1NC(=O)C(CCCCN)NC(=O)C(Cc2c[nH]c3ccccc23)NC(=O)C(Cc2ccc(O)cc2)NC(=O)C(NC(=O)C(N)Cc2ccccc2)CSSCC(C(=O)NCc2cccc3ccccc23)NC1=O (configuration not stated) [BIM 23034] (H-FCYWKAC-{NH(1-naphthylmethyl)}; disulfide 2-7; configuration not given here)" target_of_assay="UniProtKB P30875" measured_property=Ki measured_number=0.002
compound="CC(C)[C@@H]1NC(=O)[C@H](CCCCN)NC(=O)[C@@H](Cc2c[nH]c3ccccc23)NC(=O)[C@H](Cc2ccc(O)cc2)NC(=O)CCSSC(C(=O)N[C@@H](Cc2ccccc2)C(N)=O)NC1=O (some centres not stated) [CAS_117580-24-2] ([Mpa]Y[dW]KV[X1]F-NH2; disulfide 1-6)" target_of_assay="UniProtKB P30875" measured_property=Ki measured_number=6.1
compound="CC(C)[C@H](NC(=O)[C@H](CCCCN)NC(=O)[C@@H](Cc1c[nH]c2ccccc12)NC(=O)[C@H](Cc1ccc(O)cc1)NC(=O)[C@H](C)NC(=O)[C@H](N)Cc1ccc2ccccc2c1)C(=O)N[C@@H](C)C(=O)N[C@H](C(N)=O)[C@@H](C)O [D-Nal-Ala-Tyr-D-Trp-Lys-Val-Ala-Thr-NH2] (H-[d2Nal]AY[dW]KVAT-NH2)" target_of_assay="UniProtKB P30875" measured_property=Ki measured_number=86
compound=CC(C)[C@@H]1NC(=O)[C@H](CCCCN)NC(=O)[C@@H](Cc2c[nH]c3ccccc23)NC(=O)[C@H](Cc2ccc(O)cc2)NC(=O)[C@@H](NC(=O)[C@H](N)Cc2ccc3ccccc3c2)CSSC[C@@H](C(=O)N[C@H](C(N)=O)[C@@H](C)O)NC1=O target_of_assay="UniProtKB P30875" measured_property=Ki measured_number=1.6
compound="C[C@@H](O)[C@@H]1NC(=O)[C@H](CCCCN)NC(=O)[C@@H](Cc2c[nH]c3ccccc23)NC(=O)[C@H](Cc2ccc(Cl)cc2)NC(=O)[C@H](Cc2ccccc2)NC(=O)CCCCCCNC(=O)[C@H](Cc2ccccc2)NC1=O [L-362862] (cyclo([Ahp]F[Phe(4-Cl)][dW]KTF))" target_of_assay="UniProtKB P30875" measured_property=Ki measured_number=8.3
compound="CC(O)[C@H](CO)NC(=O)[C@@H]1CSSCC(NC(=O)C(N)Cc2ccccc2)C(=O)N[C@H](Cc2ccccc2)C(=O)N[C@H](Cc2c[nH]c3ccccc23)C(=O)N[C@H](CCCCN)C(=O)N[C@H](C(C)O)C(=O)N1 (some centres not stated) (H-[ξF][ξC][dF][dW][dK][dThr(3ξ)]C-X2; disulfide 2-7)" target_of_assay="UniProtKB P30875" measured_property=Ki measured_number=2.4
